Kindly supply the reported Ki values for the records listed here.
Target: D(2) dopamine receptor (Homo sapiens)
Sequence (P14416 whole entry): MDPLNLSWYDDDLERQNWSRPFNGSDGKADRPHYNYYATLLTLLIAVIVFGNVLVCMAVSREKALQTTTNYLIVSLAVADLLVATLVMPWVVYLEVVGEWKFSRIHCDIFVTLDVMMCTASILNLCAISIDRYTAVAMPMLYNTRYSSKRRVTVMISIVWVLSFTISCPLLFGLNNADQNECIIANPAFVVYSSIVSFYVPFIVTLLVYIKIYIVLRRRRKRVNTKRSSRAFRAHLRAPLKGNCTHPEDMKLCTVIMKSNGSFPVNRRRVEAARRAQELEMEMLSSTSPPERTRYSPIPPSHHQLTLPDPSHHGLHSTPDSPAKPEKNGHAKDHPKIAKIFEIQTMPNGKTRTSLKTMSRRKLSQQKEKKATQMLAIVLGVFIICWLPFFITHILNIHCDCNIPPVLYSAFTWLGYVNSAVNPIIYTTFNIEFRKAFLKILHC
Assay: Displacement of [3H]spiperone from human D2long receptor stably expressed in CHO cell membranes by competitive binding assay
The reply should contain only the number, in nM.

Just so you know, measured Ki for "O=C(CCC(=O)OC1(c2ccc(Cl)cc2)CCN(CCCC(=O)c2ccc(F)cc2)CC1)OC1(c2ccc(Cl)cc2)CCN(CCCC(=O)c2ccc(F)cc2)CC1" came out at 6.7

For record "O=C(CCN1CCN(CCC(=O)OC2(c3ccc(Cl)cc3)CCN(CCCC(=O)c3ccc(F)cc3)CC2)CC1)OC1(c2ccc(Cl)cc2)CCN(CCCC(=O)c2ccc(F)cc2)CC1" the listed Ki is 2.5

The compound "O=C(CCc1cn(CCOCCOCCOCCOCCn2cc(CCC(=O)OC3(c4ccc(Cl)cc4)CCN(CCCC(=O)c4ccc(F)cc4)CC3)nn2)nn1)OC1(c2ccc(Cl)cc2)CCN(CCCC(=O)c2ccc(F)cc2)CC1" showed Ki equal to 1.6
